Give IC50 for every item shown.
Biological target: dihydrolipoamide acyltransferase (DlaT) (Mycobacterium tuberculosis)
Sequence (P9WIS7 whole entry): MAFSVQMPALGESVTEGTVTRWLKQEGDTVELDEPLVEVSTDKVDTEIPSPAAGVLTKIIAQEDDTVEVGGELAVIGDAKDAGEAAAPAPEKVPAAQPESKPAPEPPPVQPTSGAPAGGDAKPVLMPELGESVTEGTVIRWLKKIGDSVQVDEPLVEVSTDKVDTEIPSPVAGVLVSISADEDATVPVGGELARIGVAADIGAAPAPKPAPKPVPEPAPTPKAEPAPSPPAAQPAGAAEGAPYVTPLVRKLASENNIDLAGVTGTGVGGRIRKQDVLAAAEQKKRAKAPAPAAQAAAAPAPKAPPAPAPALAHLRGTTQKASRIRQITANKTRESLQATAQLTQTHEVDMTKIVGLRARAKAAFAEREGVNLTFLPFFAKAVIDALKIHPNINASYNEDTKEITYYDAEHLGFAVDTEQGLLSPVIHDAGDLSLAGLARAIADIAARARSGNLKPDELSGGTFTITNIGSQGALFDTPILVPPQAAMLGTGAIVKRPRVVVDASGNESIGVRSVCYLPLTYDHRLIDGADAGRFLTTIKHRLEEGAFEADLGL
Assay: DlaT inhibition (Dlat IC50); DTNB peroxidase assay with Lpd, DlaT and AhpD
Assay type: biochemical
Conditions: Dlat IC50 category

[
  {
    "molecule": "O=C(O)CN1C(=O)C(=Cc2ccc(-c3ccc(CSc4ccccc4)cc3)o2)SC1=S [Compound B71]",
    "target": "dihydrolipoamide acyltransferase (DlaT) (Mycobacterium tuberculosis)",
    "IC50": "11 to 40 µM"
  },
  {
    "molecule": "CCCCOc1ccc(-c2ccc(C=C3SC(=S)N(C4CCC(C(=O)O)CC4)C3=O)o2)cc1 (centres unmarked) [Compound C57]",
    "target": "dihydrolipoamide acyltransferase (DlaT) (Mycobacterium tuberculosis)",
    "IC50": "11 to 40 µM"
  },
  {
    "molecule": "CCCCc1ccc(-c2ccc(C=C3SC(=S)N(Nc4ccccc4C(=O)O)C3=O)o2)cc1 [Compound D59]",
    "target": "dihydrolipoamide acyltransferase (DlaT) (Mycobacterium tuberculosis)",
    "IC50": "< 10 µM"
  },
  {
    "molecule": "CNS(=O)(=O)c1ccc(-c2ccc(C=C3SC(=S)N(C4CCCC(C(=O)O)C4)C3=O)o2)cc1 (centres unmarked) [Compound C83]",
    "target": "dihydrolipoamide acyltransferase (DlaT) (Mycobacterium tuberculosis)",
    "IC50": "11 to 40 µM"
  },
  {
    "molecule": "CSc1ccc(-c2ccc(C=C3SC(=S)N(Nc4ccccc4C(=O)O)C3=O)o2)cc1 [Compound D53]",
    "target": "dihydrolipoamide acyltransferase (DlaT) (Mycobacterium tuberculosis)",
    "IC50": "11 to 40 µM"
  }
]

Would you mind giving IC50 for every molecule in the list below?
1. CC(=O)Nc1ccc(-c2ccc(C=C3SC(=S)N(Nc4ccccc4C(=O)O)C3=O)o2)cc1 [Compound D41]
2. COc1ccc(-c2ccc(C=C3SC(=S)N(C4CCCC(C(=O)O)C4)C3=O)o2)cc1 (centres unmarked) [Compound C15]
3. O=C(O)C1CCCC(N2C(=O)C(=Cc3ccc(-c4ccccc4-c4ccccc4)o3)SC2=S)C1 (centres unmarked) [Compound C70]

[out]
< 10 µM
< 10 µM
< 10 µM
